- Assay: clinical
- Test Conditions: human, plasma, po, 75 mg
Kindly state k el for each of the entries shown.
Number only, in s⁻¹; omit the unit.

INPUT: For CCC(CC)O[C@@H]1C=C(C(=O)O)C[C@H](N)[C@H]1NC(C)=O [Oseltamivir carboxylate, oseltamivir carboxylate] , what is its reported k el?
OUTPUT: 1.92e-05

INPUT: For "CCOC(=O)C1=C[C@@H](OC(CC)CC)[C@H](NC(C)=O)[C@@H](N)C1" , what is its reported k el?
OUTPUT: 7.78e-05

====

- Assay: clinical
- Test Conditions: human, in vivo, Cmax,ss, geometric mean
Assay Endpoint: Cmax

INPUT: For CCOC(=O)C1=C[C@@H](OC(CC)CC)[C@H](NC(C)=O)[C@@H](N)C1 [Oseltamivir, oseltamivir] , what is its reported Cmax?
OUTPUT: 91.2 ng/mL

INPUT: For CCC(CC)O[C@@H]1C=C(C(=O)O)C[C@H](N)[C@H]1NC(C)=O [Oseltamivir carboxylate, oseltamivir carboxylate] , what is its reported Cmax?
OUTPUT: 393 ng/mL

====

- Assay: clinical
- Test Conditions: human, in vivo, AUC0-∞,ss, geometric mean
Assay Endpoint: AUC(0-inf) (ng·h/mL)
Number only, in ng·h/mL; omit the unit.

INPUT: For CCOC(=O)C1=C[C@@H](OC(CC)CC)[C@H](NC(C)=O)[C@@H](N)C1 [Oseltamivir, oseltamivir] , what is its reported AUC(0-inf)?
OUTPUT: 175

INPUT: For CCC(CC)O[C@@H]1C=C(C(=O)O)C[C@H](N)[C@H]1NC(C)=O [Oseltamivir carboxylate, oseltamivir carboxylate] , what is its reported AUC(0-inf)?
OUTPUT: 5170

====

- Assay: clinical
- Test Conditions: human, in vivo, po, Vz/F
Assay Endpoint: Vd/F (L)
Number only, in L; omit the unit.

INPUT: For CCOC(=O)C1=C[C@@H](OC(CC)CC)[C@H](NC(C)=O)[C@@H](N)C1 [Oseltamivir, oseltamivir] , what is its reported Vd/F?
OUTPUT: 3070

====

- Assay: clinical
- Test Conditions: human, in vivo, AUC0-τ,ss, geometric mean
Kindly state AUC for each of the entries shown.
Number only, in µg·h/mL; omit the unit.

INPUT: For "CCOC(=O)C1=C[C@@H](OC(CC)CC)[C@H](NC(C)=O)[C@@H](N)C1" , what is its reported AUC?
OUTPUT: 0.167

INPUT: For CCC(CC)O[C@@H]1C=C(C(=O)O)C[C@H](N)[C@H]1NC(C)=O [Oseltamivir carboxylate, oseltamivir carboxylate] , what is its reported AUC?
OUTPUT: 3.32

====

Kindly state AUC(0-t) for each of the entries shown.
- Assay: clinical
- Test Conditions: human, in vivo, AUC0-t,ss, geometric mean
Number only, in ng·h/mL; omit the unit.

INPUT: For "CCOC(=O)C1=C[C@@H](OC(CC)CC)[C@H](NC(C)=O)[C@@H](N)C1" , what is its reported AUC(0-t)?
OUTPUT: 170

INPUT: For CCC(CC)O[C@@H]1C=C(C(=O)O)C[C@H](N)[C@H]1NC(C)=O [Oseltamivir carboxylate, oseltamivir carboxylate] , what is its reported AUC(0-t)?
OUTPUT: 5080

====

Kindly state half-life for each of the entries shown.
- Assay: clinical
- Test Conditions: human, in vivo, po, t1/2,ss
Number only, in h; omit the unit.

INPUT: For "CCOC(=O)C1=C[C@@H](OC(CC)CC)[C@H](NC(C)=O)[C@@H](N)C1" , what is its reported half-life?
OUTPUT: 4.5

INPUT: For CCC(CC)O[C@@H]1C=C(C(=O)O)C[C@H](N)[C@H]1NC(C)=O [Oseltamivir carboxylate, oseltamivir carboxylate] , what is its reported half-life?
OUTPUT: 10.3
